Reference source for all entries: patent US20240241135A1

Items are presented alongside their recorded OD value.
MEASURED TARGET: T1, recombinant human regenerating islet-derived protein 1α (REG1A) (human, UniProt P05451 23-166, limits assumed)
T1 construct: also called recombinant human REG1A; recombinant REG1A
T1 sequence (looked up): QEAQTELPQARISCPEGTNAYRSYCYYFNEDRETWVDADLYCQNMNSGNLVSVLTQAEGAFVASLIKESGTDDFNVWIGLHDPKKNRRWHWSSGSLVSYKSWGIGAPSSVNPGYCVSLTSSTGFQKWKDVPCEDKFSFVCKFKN
ASSAY INFO: sandwich ELISA; capture 11D11B11; REG1A 11.11 ng/mL
READOUT NAME: OD value (OD)

1. antibody 21B11D2 (antibody, mouse IgG2b, kappa, V domains shown, Mouse monoclonal from hybridoma, stated mouse IgG1/Kappa; Used unlabelled as capture and biotin-labelled as detection antibody; also called 21B11D2-biotin) VH: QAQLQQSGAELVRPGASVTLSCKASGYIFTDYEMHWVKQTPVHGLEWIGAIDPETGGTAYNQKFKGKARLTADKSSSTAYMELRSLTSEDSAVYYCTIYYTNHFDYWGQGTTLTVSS VL: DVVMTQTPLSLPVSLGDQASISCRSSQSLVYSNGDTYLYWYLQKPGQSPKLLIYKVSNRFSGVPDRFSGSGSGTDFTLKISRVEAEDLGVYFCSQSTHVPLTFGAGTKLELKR : 0.066
2. antibody 11D11B11 (antibody, mouse IgG2a, kappa, V domains shown, Mouse monoclonal from hybridoma, stated mouse IgG1/Kappa; Used unlabelled as capture and biotin-labelled as detection antibody; also called 11D11B11-biotin) VH: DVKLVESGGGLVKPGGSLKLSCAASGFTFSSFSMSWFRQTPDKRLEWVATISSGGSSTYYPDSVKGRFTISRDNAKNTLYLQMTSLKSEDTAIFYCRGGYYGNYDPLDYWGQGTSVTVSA VL: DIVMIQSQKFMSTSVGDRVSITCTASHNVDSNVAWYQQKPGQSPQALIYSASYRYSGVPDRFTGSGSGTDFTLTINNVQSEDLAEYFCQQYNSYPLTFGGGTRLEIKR : 0.072
3. antibody 12F12A10 (antibody, V domains shown, Mouse monoclonal from hybridoma, stated mouse IgG1/Kappa; also called 12F12A10-biotin; Antibody 2) VH: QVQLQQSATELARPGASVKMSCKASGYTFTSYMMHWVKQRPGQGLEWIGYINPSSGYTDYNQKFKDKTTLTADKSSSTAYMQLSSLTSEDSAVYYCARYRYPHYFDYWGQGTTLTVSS VL: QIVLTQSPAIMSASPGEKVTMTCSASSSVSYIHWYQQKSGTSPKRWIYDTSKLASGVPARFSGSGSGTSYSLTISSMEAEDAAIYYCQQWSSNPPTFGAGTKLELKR : 3.9
4. antibody 4H8F1 (antibody, V domains shown, Mouse monoclonal from hybridoma, stated mouse IgG1/Kappa; also called 4H8F1-biotin; Antibody 1) VH: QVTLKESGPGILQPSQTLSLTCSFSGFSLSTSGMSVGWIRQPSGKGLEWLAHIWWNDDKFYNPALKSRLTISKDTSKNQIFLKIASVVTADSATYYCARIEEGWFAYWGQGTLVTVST VL: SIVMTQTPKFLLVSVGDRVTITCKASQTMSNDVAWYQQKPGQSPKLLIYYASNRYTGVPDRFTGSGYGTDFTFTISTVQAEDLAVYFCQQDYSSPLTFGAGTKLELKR : 3.87
